Value source: the nanobody polyreactivity screen of Harvey et al. (2022)

experiment: yeast display, Sf9 membrane polyspecificity reagent, FACS + sequencing; frameworks hold sequencing errors
MEASURED PARAMETER: polyreactivity (PSR sort gate)

Below are worked cases with known answers.
- SEQUENCE STRING: "QVQLVESGGGLVQAGGSLRLSCAASGSTFWPNAMGWYRQAPGKERELVAAISWSSSSGGRTYYADSVKGRFTISRDNAKNTVYLQMNSLKPEDTAVYYCNASYRDEDDYWGQGTQVTVSS"
  polyreactivity (PSR sort gate): "high polyreactivity"
- SEQUENCE STRING: "QVQLVESGGGLVQAGGSLRLSCAASGSIFIQYDMGWYRQAPGKERELVATIRSCDSTTYADSVKGRFTISRDNAKNTVFLQVNSLKPEDTAVYYCAKDYRFDYDYDYWGQGTQVTVSS"
  polyreactivity (PSR sort gate): "low polyreactivity"
- SEQUENCE STRING: "QVQLVESGGGLVQAGGSLRLSCDASGRTFLYYAMGWSRQAPGKERELVAAISSGGSTNYADSVKGRFTISRDNAKNTVYLQMNSLKPEDTAVYYCNADYTSRDTSDVIYEYDYWGQGTQVTVTS"
  polyreactivity (PSR sort gate): "low polyreactivity"
- SEQUENCE STRING: "QVHLVESGGGLVQAGGSLRLSCAASGITFNSYAMGWYRQAPGKERDLDASISWIGGSTYYADSVKGRFTISRDNAKNTVYLQINSLKPDDTAVYYCAVDKGTDYYYDVDYWGQGTQVTVSS"
  polyreactivity (PSR sort gate): "low polyreactivity"
- SEQUENCE STRING: "QVHLVESGGGLVQAGGSLRLSCAASGRIFHYNTMGWYRQAPGKERELVAAITSSGGSTYYADSVKGRFTISRDNAKNTVYLQMNSLKPEDTAVYYCNAVFYRYGFKVDYWGQGTQETVSS"
  polyreactivity (PSR sort gate): "high polyreactivity"

In: Can you share its polyreactivity (PSR sort gate)? I mean this sequence: `QVQLVESAGGLVQAGGRLRLSCAASGRTFTYYAMGWYRQAPGKERELVAAISFSGGRTYYADSVKGRFTISRDYAKNTVYLQMNSLKPEDTAVYYCAAENYYTRYRDRDYWGQGTQVTVSS`
Out: high polyreactivity

In: Can you share its polyreactivity (PSR sort gate)? I mean this sequence: `QVQLVESGGGLVQAGGSLRLSCAASGFIFYSYAMGWYRQAPGKEREFVAAISRAGSTNYADSVKGRFTISRDNAKNTVYLQMNSLIPEDTAVYYCNKGYHSWSRLSQFGWSYDYWGQGTQVTVSS`
Out: high polyreactivity

In: Can you share its polyreactivity (PSR sort gate)? I mean this sequence: `QVQLVESGGGLVHAGGSLRLSCAASGNIFVEYAMGWYRQAPGKERELVAAITNSGGRTHYADSVKGRFTISRDNAKNTVYLQMNSLKPEDTAVYYCAAPTKYRSRRYYWGQGTQVTVSS`
Out: high polyreactivity

In: Can you share its polyreactivity (PSR sort gate)? I mean this sequence: `QVQLVESGGGLVQAGGSLRLSCAASGFTVNNNGMGWYIQAPGKERELVASISSRTTSTYYADSVKGRFTFSRDKAKNTDYFQTNSLKPEDTAVYYCAAQAWWDGEYDYWGQGTQVTVSS`
Out: high polyreactivity

In: Can you share its polyreactivity (PSR sort gate)? I mean this sequence: `QVQLVESGGGLVQAGGSLRLSCAASGSISTNYAMGWYRQAPGKERELVAAISSSGGSTYYADSVKGRFTISRDNAKNTVYLQMNSLKPEDTAVYYCRYKFGYWGQGTQVTVSS`
Out: high polyreactivity

In: Can you share its polyreactivity (PSR sort gate)? I mean this sequence: `QVQLVESGGGLVQAGGSLRLSCAASGRTFFPYPRGCYRQAPGTDREFFAAITWSGGSTTYADSVKGRFTISRDNAKNTVYLQMNSLKPEDTAVYYCNAGRRRSYSYDYWGQGTQVTVSS`
Out: low polyreactivity

---

assay: yeast display, Sf9 membrane polyspecificity reagent, FACS + sequencing; frameworks hold sequencing errors
MEASURED PARAMETER: polyreactivity (PSR sort gate)

- SEQUENCE STRING: "QVQLVESGGGLVQAGGSLRLSCAASGITFGSYAMGWYRQAPGKEREFVAAISLSGGNTYYADSVKGRFTISRDNAKNTVYLQMNSLKPEDTAVYYCAADYEYSGYGYWGQGTQVTGSS"
  polyreactivity (PSR sort gate): "high polyreactivity"
- SEQUENCE STRING: "QVQLVESGGGLVQAGGSLRLSCAASGRIFAYYAMGWYRQAPGKERELVADITRSGARTYYADSVKGRFTISRDNANNTVYLQMNSLTPEDTAVYYCAAEGVRIGTRYDYWGQGTQVTVSS"
  polyreactivity (PSR sort gate): "high polyreactivity"
- SEQUENCE STRING: "QVQLVESGGGLVQAGGSLRLSCAASGFIFKLNAMGWYRQAPGKERELVATITRGGDTKYADSVKGRFTISRDNAKNTVYLQMNSLKPEDTAVYYCAAGYPYSYRDYYYWGQGTQVTVSS"
  polyreactivity (PSR sort gate): "high polyreactivity"
- SEQUENCE STRING: "QVQLVESGGGLVQAGGSLRLSCAASVITFGYYAMGWYRQAPGKERELVAAISRRGGNTYYADSVKGRFTISRDIAKNTVYLQMNSLKPEDTAVSYCATRALYWRYGYDYWGQGTQVTVSS"
  polyreactivity (PSR sort gate): "high polyreactivity"
- SEQUENCE STRING: "QVQLVESGGGLVQAGGSLRLSCAASGFIFARYAMGWYRQAPGKERELVARITTGDSTYYADSVKGRFTISRDNAKNTVYLQMNSLKPEDTAVYYCAADDNVSVVGLYYWGQGTQVTVSS"
  polyreactivity (PSR sort gate): "low polyreactivity"
- SEQUENCE STRING: "QVQLVESGGGLVQAGGSLRLSCAASGFIFDSYAMGWYRQAPGKERELVAAISWSGGRTYYADSVKGRFTISRDNAKNTVFLQMNSLKPEDSAVYYCAADTWFGMDYWGQGTEVTVSS"
  polyreactivity (PSR sort gate): "high polyreactivity"
- SEQUENCE STRING: "QVQLVESGGGLVQAGGSLRLSCAASGIIFYKYAMGWYRQAPGKERELVAVISSGGSTYYADSVKGRFTISRDNAKNTVYLQMNSLKPEYNAVYYCNADCYRRGYDYWGKGTQVTVSS"
  polyreactivity (PSR sort gate): "high polyreactivity"
- SEQUENCE STRING: "QVQLVESGGRLVQAGGSLRLSCAASGYIFYPNVMGWYRQAPGKERELVAAISSSGGSTYYADSVKGRFTISRDNAKNTVYLQMNSLKPEDTAVYYCAARSLRYADYRSSYQKDMYYWGQGTQVTVSS"
  polyreactivity (PSR sort gate): "low polyreactivity"
- SEQUENCE STRING: "QVQLVESGGGLVQAGGSLRLSCAASGSIFYWYAMGWYRQAPGKERELVAAITSSSGRTRYADSVKGRFTISRDNAKNTVYLQMNSLKPEDTAVYYCAAGRWGSYYTPRPYGYWGQGTQVTVSS"
  polyreactivity (PSR sort gate): "high polyreactivity"
- SEQUENCE STRING: "QVQLVESGGGLVQAGGSLRLSCAASGFTFRWYAMGWYRQEPGKERELVAAITSSGGRTYYADSVKGRFTISRDNAKNTVYLQMNSMKPEDTAVYYCATDLRTRKYDYWGQGTQVTVSS"
  polyreactivity (PSR sort gate): "high polyreactivity"

Turning now to a further record.
In: Can you share its polyreactivity (PSR sort gate)? I mean this sequence: `QVEHVESGGGLVQAGGSLRLSCAASGGTFSHNDMGWYRQAPGKERELVPSINSGGSTNYADSVKGRFTISRDNAKNTVDLQMNSLKPEDNAVYYCAADVEGWTVESDVYRVGYDYWGQCTQVTVSS`
Out: low polyreactivity

---

assay: yeast display, Sf9 membrane polyspecificity reagent, FACS + sequencing; frameworks hold sequencing errors
MEASURED PARAMETER: polyreactivity (PSR sort gate)

- SEQUENCE STRING: "QVQLVESGGGLVQAGGRLRLSCAASGRTFSKYGMGGYRQAPGKEREFVAAISSSGDSTTYADSVKGRFTISRDNAKNAVYLQMNSLKPEDTAVSYCARQTSRYTGGERAYGYWGQGTQVTVSS"
  RESULT: "low polyreactivity"
- SEQUENCE STRING: "QVQLVESGGGLVQAGGSLRVSCAASGTTFPRNAMGWYRQAPGKERELVATITSAGGGTYYADSVKGRFTISRDNAKNSVYLQMNSLKPEDTAVYYCNADGPAGDAFDSWGQGTQVTVSS"
  RESULT: "low polyreactivity"
- SEQUENCE STRING: "QVQLVESGGGLVQAGGSLRLSCAASGSIFSSNAMGWYRQPPGKERELVAAITSGGSTYYADSVKGRFTISRDNAKNTVYLQMNSLKPEDTAVYYCAASYWGFQRMYYWGQGTQVTVSS"
  RESULT: "high polyreactivity"
- SEQUENCE STRING: "QVQLGESGGGLVQAGGSLGLSCAASGLTFIVYAMGWYRQAPGKERELVADITWSGGSTYYADSVKGRFTISRDNAKNTVYLQMNSLKPEDTAVYYCNRQSGNIMDYWGQGTQVTVSS"
  RESULT: "low polyreactivity"
- SEQUENCE STRING: "QVQLVESGGGLVQAGGSLRLSCAASGITFVFYTMGWYRQAPGKETELVAAISRSGASTYYADSVKGRFTISRDNAKNTVYLQMNSLKPEDTAVYYCAADRGYRFRMDYWGQGTQVTVST"
  RESULT: "high polyreactivity"
- SEQUENCE STRING: "QVQLVESGGGLVQAGGSLRLSCAASGSIFDENAMGWYRQAPGKERELVAAITGSGVRTYYADSVKGRFTISRDNAKNTVYLQMNSLKPEDTAVYYCNRVKSGSYKFGYWGQGTQVTVSS"
  RESULT: "high polyreactivity"
- SEQUENCE STRING: "QVQLVESGGGLVQAGGSLRLSCAASGSIFYRNAMGWYRQAPGKERELVAGITTRGGSTYYADSVKGRFTISRDNAKNTVYLQMNSLKPEDTAVYYCNKYYYYRDSGYWGQGTQVTVSS"
  RESULT: "high polyreactivity"
- SEQUENCE STRING: "QVQLVESGGGLVQAGGSLRLSCAASGSIFEPNAMGRYRQAPGKEREFVAAISGSGGSTYYADSVKGRFTISRDNAKNTVYLQMNSLKPEDTAVYYCATRGKRSYFRTFYYWGEGTQVTVSS"
  RESULT: "high polyreactivity"
- SEQUENCE STRING: "QVQLVESGGGLVQAGGRLRFTCAASGAIFHNYDMGGYRQATGKERQLVADISRGGDTNYADSVKGRFTISRDNAKNTVYLEMNSMKPEDTAVYYCNATYWILDSPWWRETFDYWGQGSQVTVSS"
  RESULT: "low polyreactivity"
- SEQUENCE STRING: "QVQLVESGGGLVQAGGSLRLSCAASGSIFSSYAMGWYRQAPGKERELVAVINSGGSTNYADSVKGRFTISRDNAKNSVYVQMKSLKPEDTAVYYCNAYGGTFHNTAAEFDYWRQGTQVTVSS"
  RESULT: "low polyreactivity"

Turning now to a further record.
In: Can you share its polyreactivity (PSR sort gate)? I mean this sequence: `QVQLVESGGGLVQAGGSLRLSCAASGSTSKSYTMGWYRQAPGKERELVAAISYSGVSTYYADSVKGRFTISRDNAKNTVYLQMNSLKPEDTAVYYCAKRTRKYTVGYYYWGQGTQVTVSS`
Out: high polyreactivity
